meta.source: PubChem BioAssay (NCI)

System: M19-MEL melanoma
ASSAY_TEXT: NCI tumour cell line growth inhibition, 48 h

MOLECULE: O=c1[nH]c2cc([N+](=O)[O-])ccc2nc1/C(=N/Nc1ccccc1)C(O)c1ccccc1Cl (stereo not given)
TGI: > 100 µM
--
MOLECULE: CCS(CC)(CC)CC1CCCC2=CCC(P(=O)(c3ccccc3)c3ccccc3)CC21 (stereo not given)
TGI: 36.5 µM
--
MOLECULE: Cc1cc(=O)n(-c2ccccc2C)c(C)n1
TGI: > 100 µM
--
MOLECULE: Cc1cccc(C)c1NC(=O)C(C#N)C1=C(Cl)C(=O)c2ccccc2C1=O (stereo not given)
TGI: 16.6 µM
--
MOLECULE: CC(=O)CC(=O)OC1CC(C)CCC1C(C)C (stereo not given)
TGI: > 100 µM
--
MOLECULE: Nc1ncnc2nc[nH]c12
TGI: > 250 µM
--
MOLECULE: Cn1cc(C(=O)NCCC(=N)N)cc1NC(=O)C1=[N+](C)C=C(NC(=O)c2cccc(C(=O)NC3=CC(C(=O)Nc4cc(C(=O)NCCC(=N)N)cn4C)=[N+](C)C3)c2)C1
TGI: > 100 µM
--
MOLECULE: CCOC(=O)N1CCN(C=S)CC1
TGI: > 100 µM
--
MOLECULE: COc1cc(OC(=O)c2ccccc2)cc2c1C(=O)C=CC2=O
TGI: 25.9 µM
--
MOLECULE: CCc1cc(C(=O)OC)cn1C(=N)c1ccc(Cl)cc1
TGI: > 100 µM
--
MOLECULE: CNS(=O)(=O)NN(C)S(=O)(=O)c1ccccc1
TGI: > 100 µM
--
MOLECULE: NC1=C(NC(=O)Cc2ccc(F)cc2)C(=O)c2ccccc2C1=O
TGI: 45.4 µM
--
MOLECULE: CC(C)C1CC[C@@H](C)C[C@@]1(O)CC(N)=O (stereo not given in full)
TGI: > 100 µM
--
MOLECULE: C[C@]12CCC(=O)C=C1CC[C@@H]1[C@@H]2CC[C@]2(C)C(=O)NC(=O)C[C@@H]12
TGI: > 100 µM
--
MOLECULE: CCCCOC(=O)C1C2CCC(O2)C1C(=O)OCCCC (stereo not given)
TGI: > 100 µM
--
MOLECULE: CC1CCC(NC(=O)N(CCCl)N=O)CC1 (stereo not given)
TGI: 98 µM
--
MOLECULE: O=C(CSc1nnc(-c2ccc(N=Cc3ccc(Cl)cc3)cc2)o1)Nc1ccccc1[N+](=O)[O-]
TGI: > 100 µM
--
MOLECULE: O=C(Nc1ccc(Cl)cc1)c1cc2cc(N=Nc3ccccc3Cl)ccc2oc1=O
TGI: 53 µM
--
MOLECULE: Cc1ccc(S(=O)(=O)OC2CSS(=O)CC2OS(=O)(=O)c2ccc(C)cc2)cc1 (stereo not given)
TGI: 30.5 µM
--
MOLECULE: O=C(c1cccs1)N(C(=S)N1CCN(c2ccccn2)CC1)c1ccccc1
TGI: > 100 µM
--
MOLECULE: Nc1ccnc(=O)[nH]1
TGI: > 100 µM
--
MOLECULE: C/C(CC(=O)Nc1ccc([N+](=O)[O-])cc1)=N\NC(N)=O
TGI: > 100 µM
--
MOLECULE: OC(c1ccccc1)(c1ccccc1)c1ccncc1
TGI: > 100 µM
--
MOLECULE: COC(=O)/C(C)=C(/CCC1(C)OCCO1)O[Si](C)(C)C
TGI: > 100 µM
--
MOLECULE: COc1ccc(Nc2nnc(-c3nsc4ccccc34)s2)cc1
TGI: > 100 µM

* * *

Tested on: HT29 colon
ASSAY_TEXT: NCI tumour cell line growth inhibition, 48 h

COMPOUND: Cn1cc(C(=O)NCCC(=N)N)cc1NC(=O)C1=[N+](C)C=C(NC(=O)c2cccc(C(=O)NC3=CC(C(=O)Nc4cc(C(=O)NCCC(=N)N)cn4C)=[N+](C)C3)c2)C1
TGI: > 100 µM

COMPOUND: CC/C=C1/C(=O)C=C[C@@H]1C/C=C\CCCC(=O)OC
TGI: 5.3 µM

COMPOUND: O=C1/C(=C/c2cccc(F)c2)CCCc2ccccc21
TGI: 25.9 µM

COMPOUND: CSc1ccc(C(=C=C=C(c2ccc(SC)s2)c2ccc(SC)s2)c2ccc(SC)s2)s1
TGI: > 10 µM

COMPOUND: C1=NCCN2CCN(CCN=Cc3ccc(cc3)OCc3cccc(n3)COc3ccc1cc3)CC2
TGI: > 50 µM

COMPOUND: CCOc1ccc2c(c1)[n+]([O-])c(-c1ccc(Cl)cc1)c(N)[n+]2[O-]
TGI: > 100 µM

COMPOUND: C[C@]12C=CC(=O)C=C1CC[C@@H]1[C@@H]2CC[C@]2(C)OC(=O)CC[C@@H]12
TGI: > 500 µM

COMPOUND: C=CCN1C(=O)C=C(c2ccccc2)n2ncc3cccc1c32
TGI: > 100 µM

COMPOUND: CCOC(=O)N1CCN(C=S)CC1
TGI: > 100 µM

COMPOUND: CC1=NN(C(=O)c2ccccc2O)C(=O)/C1=C/c1ccco1
TGI: > 100 µM

COMPOUND: O=C([CH-]C(=O)c1ccccc1)c1ccccc1.O=C([CH-]C(=O)c1ccccc1)c1ccccc1.[La+3].[OH-].[OH3+]
TGI: 50.1 µM

COMPOUND: N#Cc1c(N)nc(-c2ccc(Cl)cc2)c2c1-c1ccccc1S(=O)(=O)CC2
TGI: > 100 µM

COMPOUND: COc1cc(NC(C)CCCNC2CN3CCC2CC3)c2ncccc2c1 (stereo unspecified)
TGI: 14 µM

COMPOUND: Cc1cc(=O)n(-c2ccccc2C)c(C)n1
TGI: > 100 µM

COMPOUND: COc1ccc(C(=O)c2cc(OC)c(OC)c(OC)c2)cc1OC(=O)CCl
TGI: > 100 µM

COMPOUND: COc1c(C)c2c(c(O)c1C/C=C(\C)CCC(=O)O)C(=O)OC2
TGI: > 100 µM

COMPOUND: COc1cc2c(cc1C)NC(=O)/C2=C/c1ccccn1
TGI: > 100 µM

COMPOUND: COc1ccc2nc3cccc([N+](=O)[O-])c3c(NCCCCCC(=O)O)c2c1
TGI: 0.392 µM

COMPOUND: O=C1NC2ON=C(c3ccccc3)C2C2ON=C(c3ccccc3)N12 (stereo unspecified)
TGI: > 100 µM

COMPOUND: O=c1[nH]c2cc(Cl)ccc2nc1/C(=N\O)C(O)c1cccc([N+](=O)[O-])c1 (stereo unspecified)
TGI: > 100 µM

COMPOUND: Cc1ccc(S(=O)(=O)OC2CSS(=O)CC2OS(=O)(=O)c2ccc(C)cc2)cc1 (stereo unspecified)
TGI: 87.5 µM

COMPOUND: Nc1ccnc(=O)[nH]1
TGI: > 100 µM

COMPOUND: COc1ccc2c(c1)c(=O)oc1cc(OC/C(C)=N\O)ccc12
TGI: > 100 µM

COMPOUND: CN(C)CCN1C(=O)c2ccccc2N(C)c2ccccc21
TGI: > 100 µM

COMPOUND: COc1ccc(C(=O)OC2C(OC3C(O)COC(O[C@H]4C[C@H]5[C@@H]6CC=C7C[C@@H](O)CC[C@]7(C)[C@H]6CC[C@]5(C)[C@H]4[C@H](C)C(=O)CCC(C)C)C3OC(N)=O)OCC(O)C2O)cc1 (stereo partly specified)
TGI: 4.27 µM

COMPOUND: O=C(CN1CCCCC1)Nc1ccc2sc3ccccc3c(=O)c2n1
TGI: > 100 µM

COMPOUND: COc1ccc2n[se]nc2c1
TGI: > 100 µM

COMPOUND: C[C@H]1[C@H](C)CC[C@]2(CO)CC[C@]3(C)C(=CC[C@@H]4[C@@]5(C)CCCNC(C)(C)[C@@H]5CC[C@]43C)[C@H]12
TGI: 1.97 µM

COMPOUND: Cc1csc2[n+]1C(=O)/C(=C\c1ccc([N+](=O)[O-])cc1)S2
TGI: 60.2 µM

COMPOUND: Nc1ncnn2c(C3OC(CO)C(O)C3O)ccc12 (stereo unspecified)
TGI: 1.45 µM

COMPOUND: COc1cc(O)c2c(=O)cc(-c3ccc(O)cc3O)oc2c1CC=C(C)C
TGI: 16.3 µM

* * *

Test system: HT29 colon
ASSAY_TEXT: NCI tumour cell line growth inhibition, 48 h
Listing: TGI of selected compounds

COMPOUND: CNS(=O)(=O)NN(C)S(=O)(=O)c1ccccc1
TGI: > 100 µM
--
COMPOUND: O=C(CCCCCCCCC(=O)N/N=C\c1ccccc1O)N/N=C\c1ccccc1O
TGI: > 36.6 µM
--
COMPOUND: COC(=O)[C@@H]1CN(C(C)=O)C(=O)N1
TGI: > 100 µM
--
COMPOUND: CCOC(=O)/C(C#N)=C\c1ccc(N(CCC(=O)O)CCC(=O)O)c(I)c1
TGI: > 10 µM
--
COMPOUND: CCCCOC(=O)C1C2CCC(O2)C1C(=O)OCCCC (configuration not stated)
TGI: > 64.2 µM
--
COMPOUND: Cc1nn2c(/C=C3\C(=O)Nc4ccc(Cl)cc43)c(C)nc2s1
TGI: > 100 µM
--
COMPOUND: CN1CCc2[nH]c3ccccc3c2C1
TGI: > 100 µM
--
COMPOUND: COC(=O)C1(CCC(C)=O)CCCCCC1=O (configuration not stated)
TGI: > 100 µM
--
COMPOUND: Clc1ccc(NCc2nnc(CCCCCCCCc3nnc(CNc4ccc(Cl)cc4)o3)o2)cc1
TGI: > 100 µM
--
COMPOUND: CC(=O)CC(=O)OC1CC(C)CCC1C(C)C (configuration not stated)
TGI: > 100 µM
--
COMPOUND: CC1CCC(NC(=O)N(CCCl)N=O)CC1 (configuration not stated)
TGI: 109 µM
--
COMPOUND: Nc1c(C(=O)c2cccc(-c3ccncc3)c2)cnn1-c1ccc(F)cc1F
TGI: > 25 µM
